Listing of recorded self-cleavage kobs at 40 uM GlcN6P by entry.
B1: glmS ribozyme (parent)
chain: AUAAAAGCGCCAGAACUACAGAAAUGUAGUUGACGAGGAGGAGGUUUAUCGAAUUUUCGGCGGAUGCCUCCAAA

# Variants of: B1
# EXPERIMENT SUMMARY: self-cleavage kobs at 40 uM GlcN6P; higher = faster cleavage; RNA array
# RUN PARAMETERS: with glucosamine-6-phosphate
Fewer inactive variants are shown than the library holds.
METRIC: self-cleavage kobs at 40 uM GlcN6P

chain_sequence="AUAAAAGCGCCAGAACUACAGAAAUGUAGUUGACGAGGAGGAGGUUUAUCGAAUUGUCGGCUUAUGCCUCCAAA [U56G G62U G63U]" observed_result="< 1e-05 s⁻¹"
chain_sequence="AUAAAAGCGCCAGAACUACAGAAAUGUAGGUGACGAGGAGGAGGUUUAUCGAAUUUUCGGCGGAUGACUCCAAA [U30G C67A]" observed_result="6.13e-05 s⁻¹"
chain_sequence="AUAAAAGCGCCAAAACUACAGAAAUGUAGUUGACGAGGAGGAGGUUUAUCGAAUGUUCGGCGGAUGCCUCGAAA [G13A U55G C71G]" observed_result="< 1e-05 s⁻¹"
chain_sequence="AUAAAAGCGCCAGAACUACAGAAAUGUAGUUGACGAGGAGGAGGUUUUUAGAAUUUUCGGCGGAUUCCUCCAAA [A48U C50A G66U]" observed_result="< 1e-05 s⁻¹"
chain_sequence="AUAAAAGCUCCUGAACUACAGAAAUGUAGUUGACGAGGAGGAGGUUUAUCGAAUUUUCGGCGGAUGCCUUCAAA [G9U A12U C70U]" observed_result="< 1e-05 s⁻¹"
